UniProtKB P00533: recorded IC50 for assorted compounds
Where a name gives a salt, the structure may show the parent alone.

Solved cases (2 shown):
[
  {
    "compound": "COc1ccc(S(C)(=O)=O)cc1Nc1nccc(-c2sc(N3CCOCC3)nc2-c2cccc(NS(=O)(=O)c3c(F)cccc3F)c2F)n1",
    "assayedSystem": "UniProtKB P00533",
    "IC50": "> 1000 nM"
  },
  {
    "compound": "COc1cc(N2CCN(CCF)CC2)ccc1Nc1nccc(-c2sc(C(C)C)nc2-c2cccc(NS(=O)(=O)c3c(F)cccc3F)c2)n1",
    "assayedSystem": "UniProtKB P00533",
    "IC50": "100 to 1000 nM"
  }
]

Read the next record carefully.
I would be grateful if you could share the reported IC50 for COc1ccc(Nc2nccc(-c3sc(C(C)C)nc3-c3cccc(NS(=O)(=O)c4c(F)cccc4F)c3)n2)cc1N(C)C [Example 18, trifluoroacetate] .
< 100 nM

----------
- System: SK-MEL-3 tumor cells
- measurementNotes: Cell growth inhibition assay (CellTiter-Glo), SK-MEL-3
- Type: cell-based, Human
- conditionLabel: Homo sapiens, SK-MEL3
pIC50: −log10 of the molar value.
Reported pIC50 values for a set of molecules

Solved cases (3 shown):
[
  {
    "smilesEntry": "Cc1cc(N2CCN(CCS(C)(=O)=O)CC2)ncc1Nc1nccc(-c2sc(C(C)C)nc2-c2cccc(NS(=O)(=O)c3c(F)cccc3F)c2)n1",
    "assayedSystem": "SK-MEL-3 tumor cells",
    "pIC50": "> 7.00"
  },
  {
    "smilesEntry": "CS(=O)(=O)c1cccc(Nc2nccc(-c3sc(N4CCOCC4)nc3-c3cccc(NS(=O)(=O)c4c(F)cccc4F)c3F)n2)c1",
    "assayedSystem": "SK-MEL-3 tumor cells",
    "pIC50": "> 7.00"
  },
  {
    "smilesEntry": "CC(C)c1nc(-c2ccc(F)c(NS(=O)(=O)c3ccccc3C#N)c2)c(-c2ccnc(Nc3ccc(N4CCOCC4)nc3)n2)s1",
    "assayedSystem": "SK-MEL-3 tumor cells",
    "pIC50": "6.00 to 7.00"
  }
]

I would be grateful if you could share the reported pIC50 for CC(C)c1nc(-c2cccc(NS(=O)(=O)c3c(F)cccc3F)c2F)c(-c2ccnc(Nc3ccc(N4CCOCC4)nc3)n2)s1 .
> 7.00

Check CC(C)c1nc(-c2ccc(F)c(NS(=O)(=O)c3c(F)cccc3F)c2)c(-c2ccnc(Nc3ccc(N4CCC(C#N)CC4)nc3)n2)s1 too.
6.00 to 7.00

----------
Reported pIC50 values for a set of compounds
- Test system: A375P F11s tumor cells
- measurementNotes: Cell growth inhibition assay (CellTiter-Glo), A375P F11s
- Format: cell-based, Human
- conditionLabel: Homo sapiens
pIC50: −log10 of the molar value.

[
  {
    "smilesEntry": "CC(C)c1nc(-c2cccc(NS(=O)(=O)c3cccs3)c2)c(-c2ccnc(Nc3ccc(N4CCOCC4)nc3)n2)s1",
    "endpointResult": "> 7.00"
  },
  {
    "smilesEntry": "CC(=O)N1CCN(c2ccc(Nc3nccc(-c4sc(C(C)C)nc4-c4cccc(NS(=O)(=O)c5ccc(F)cc5)c4)n3)cn2)CC1",
    "endpointResult": "> 7.00"
  },
  {
    "smilesEntry": "O=S(=O)(Nc1cccc(-c2ncsc2-c2ccnc(Nc3ccc(N4CCOCC4)nc3)n2)c1)c1c(F)cccc1F",
    "endpointResult": "> 7.00"
  },
  {
    "smilesEntry": "CCNc1nc(-c2cccc(NS(=O)(=O)c3c(F)cccc3F)c2)c(-c2ccnc(Nc3ccc(N4CCOCC4)nc3)n2)s1",
    "endpointResult": "> 7.00"
  },
  {
    "smilesEntry": "CC(C)c1nc(-c2cccc(NS(=O)(=O)c3c(F)cccc3F)c2)c(-c2ccnc(Nc3ccc(N4CCOCC4)c(C(=O)O)c3)n2)s1",
    "endpointResult": "> 7.00"
  },
  {
    "smilesEntry": "CS(=O)(=O)c1cccc(Nc2nccc(-c3sc(N4CCOCC4)nc3-c3cccc(NS(=O)(=O)c4c(F)cccc4F)c3F)n2)c1",
    "endpointResult": "> 7.00"
  },
  {
    "smilesEntry": "CC(C)c1nc(-c2cccc(NS(=O)(=O)c3c(F)cccc3F)c2F)c(-c2ccnc(Nc3ccc(N4CCOCC4)nc3)n2)s1",
    "endpointResult": "> 7.00"
  },
  {
    "smilesEntry": "CC(C)c1nc(-c2cccc(NS(=O)(=O)C3CCCCC3)c2)c(-c2ccnc(Nc3ccc(N4CCOCC4)c(F)c3)n2)s1",
    "endpointResult": "6.00 to 7.00"
  }
]

Read the next record carefully.
I would be grateful if you could share the reported pIC50 for CCNc1nc(-c2ccc(F)c(NS(=O)(=O)c3c(F)cccc3F)c2)c(-c2ccnc(Nc3ccc(N4CCOCC4)nc3)n2)s1 .
6.00 to 7.00

----------
EGFR (Homo sapiens, UniProt P00533): recorded pIC50 for assorted compounds
Sequence (P00533 25-1210): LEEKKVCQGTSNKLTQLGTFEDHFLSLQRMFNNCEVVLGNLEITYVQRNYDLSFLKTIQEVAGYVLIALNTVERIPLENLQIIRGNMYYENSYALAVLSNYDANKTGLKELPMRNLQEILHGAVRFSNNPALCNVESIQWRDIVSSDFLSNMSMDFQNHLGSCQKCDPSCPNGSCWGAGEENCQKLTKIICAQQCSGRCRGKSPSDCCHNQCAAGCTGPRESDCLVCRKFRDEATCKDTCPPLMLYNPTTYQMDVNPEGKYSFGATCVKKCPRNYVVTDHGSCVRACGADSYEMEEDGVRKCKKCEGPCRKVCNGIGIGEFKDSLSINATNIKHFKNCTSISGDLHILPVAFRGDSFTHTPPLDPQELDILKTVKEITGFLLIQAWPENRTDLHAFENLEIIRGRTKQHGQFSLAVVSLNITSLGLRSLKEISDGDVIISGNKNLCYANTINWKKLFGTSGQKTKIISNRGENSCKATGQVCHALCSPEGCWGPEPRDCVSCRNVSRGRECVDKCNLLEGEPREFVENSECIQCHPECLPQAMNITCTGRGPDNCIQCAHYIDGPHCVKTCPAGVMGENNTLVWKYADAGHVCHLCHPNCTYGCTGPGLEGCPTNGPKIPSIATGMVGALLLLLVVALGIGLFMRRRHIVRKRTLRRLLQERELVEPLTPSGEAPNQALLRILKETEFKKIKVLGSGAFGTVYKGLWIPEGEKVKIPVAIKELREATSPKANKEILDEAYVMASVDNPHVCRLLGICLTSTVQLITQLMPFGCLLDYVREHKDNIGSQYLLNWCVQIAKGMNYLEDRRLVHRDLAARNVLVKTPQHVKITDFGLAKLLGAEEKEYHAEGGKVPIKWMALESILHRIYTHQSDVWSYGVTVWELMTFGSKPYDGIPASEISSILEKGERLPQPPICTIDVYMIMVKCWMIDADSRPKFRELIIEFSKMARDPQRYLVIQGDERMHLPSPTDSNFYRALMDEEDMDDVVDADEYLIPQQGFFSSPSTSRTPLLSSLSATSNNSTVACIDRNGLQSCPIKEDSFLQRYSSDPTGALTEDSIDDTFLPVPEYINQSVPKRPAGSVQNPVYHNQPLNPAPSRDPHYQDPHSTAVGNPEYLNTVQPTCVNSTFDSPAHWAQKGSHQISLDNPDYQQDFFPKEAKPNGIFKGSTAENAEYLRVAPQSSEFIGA
pIC50: −log10 of the molar value.

Solved cases (6 shown):
[
  {
    "smilesEntry": "COc1cc(N2CCN(CCS(C)(=O)=O)CC2)c(C)cc1Nc1nccc(-c2sc(C(C)C)nc2-c2cccc(NS(=O)(=O)c3cccnc3)c2)n1",
    "assayedSystem": "EGFR (Homo sapiens, UniProt P00533)",
    "resultType": "pIC50",
    "endpointResult": "6.00 to 7.00"
  },
  {
    "smilesEntry": "Cc1cc(Nc2nccc(-c3sc(C(C)C)nc3-c3ccc(F)c(NS(=O)(=O)c4c(F)cccc4F)c3)n2)ccn1",
    "assayedSystem": "EGFR (Homo sapiens, UniProt P00533)",
    "resultType": "pIC50",
    "endpointResult": "6.00 to 7.00"
  },
  {
    "smilesEntry": "O=S(=O)(Nc1cc(-c2nc(N3CCOCC3)sc2-c2ccnc(Nc3ccc(N4CCOCC4)nc3)n2)ccc1F)c1c(F)cccc1F",
    "assayedSystem": "EGFR (Homo sapiens, UniProt P00533)",
    "resultType": "pIC50",
    "endpointResult": "6.00 to 7.00"
  },
  {
    "smilesEntry": "O=S(=O)(Nc1cccc(-c2nc(N3CCOCC3)sc2-c2ccnc(Nc3ccc(N4CCOCC4)nc3)n2)c1Cl)c1c(F)cccc1F",
    "assayedSystem": "EGFR (Homo sapiens, UniProt P00533)",
    "resultType": "pIC50",
    "endpointResult": "< 6.00"
  },
  {
    "smilesEntry": "COc1cc(C)ccc1S(=O)(=O)Nc1cccc(-c2nc(C(C)C)sc2-c2ccnc(Nc3ccc(N4CCN(C(C)=O)CC4)nc3)n2)c1",
    "assayedSystem": "EGFR (Homo sapiens, UniProt P00533)",
    "resultType": "pIC50",
    "endpointResult": "< 6.00"
  },
  {
    "smilesEntry": "CCNc1nc(-c2cccc(NS(=O)(=O)c3c(F)cccc3F)c2)c(-c2ccnc(Nc3cc(C)c(N4CCN(CCS(C)(=O)=O)CC4)cc3OC)n2)s1",
    "assayedSystem": "EGFR (Homo sapiens, UniProt P00533)",
    "resultType": "pIC50",
    "endpointResult": "> 7.00"
  }
]

I would be grateful if you could share the reported pIC50 for CC(=O)N1CCN(c2ccc(Nc3nccc(-c4oc(C(C)C)nc4-c4cccc(NS(=O)(=O)c5c(F)cccc5F)c4)n3)cn2)CC1 .
< 6.00
